- testTarget: Stromelysin-1 (Homo sapiens, UniProt P08254)
- Sequence (P08254 whole entry): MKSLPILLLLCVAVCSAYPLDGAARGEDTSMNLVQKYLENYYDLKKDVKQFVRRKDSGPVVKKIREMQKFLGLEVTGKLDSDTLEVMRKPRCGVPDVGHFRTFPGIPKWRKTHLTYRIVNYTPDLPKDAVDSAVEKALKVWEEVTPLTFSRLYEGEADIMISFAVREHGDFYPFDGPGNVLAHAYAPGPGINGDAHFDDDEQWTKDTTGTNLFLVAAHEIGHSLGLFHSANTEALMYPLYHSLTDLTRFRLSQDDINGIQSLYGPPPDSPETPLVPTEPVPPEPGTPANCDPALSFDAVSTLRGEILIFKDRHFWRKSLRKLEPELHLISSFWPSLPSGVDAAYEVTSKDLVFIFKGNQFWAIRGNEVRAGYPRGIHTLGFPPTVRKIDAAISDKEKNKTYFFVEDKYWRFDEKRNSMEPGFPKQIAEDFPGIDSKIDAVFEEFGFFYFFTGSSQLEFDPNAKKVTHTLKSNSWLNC
pKi: −log10 of the molar value.
endpointName: pKi

Query: Answer with the recorded pKi for the compound listed here: NC(=O)CC[C@H](NC(=O)CCc1ccc(-c2cc(-c3ccccc3)cs2)cc1)C(=O)N[C@@H](CCC(=O)O)C(N)=O
Response: < 5.00

* * *

- testTarget: Macrophage metalloelastase (Homo sapiens, UniProt P39900)
- Sequence (P39900 whole entry): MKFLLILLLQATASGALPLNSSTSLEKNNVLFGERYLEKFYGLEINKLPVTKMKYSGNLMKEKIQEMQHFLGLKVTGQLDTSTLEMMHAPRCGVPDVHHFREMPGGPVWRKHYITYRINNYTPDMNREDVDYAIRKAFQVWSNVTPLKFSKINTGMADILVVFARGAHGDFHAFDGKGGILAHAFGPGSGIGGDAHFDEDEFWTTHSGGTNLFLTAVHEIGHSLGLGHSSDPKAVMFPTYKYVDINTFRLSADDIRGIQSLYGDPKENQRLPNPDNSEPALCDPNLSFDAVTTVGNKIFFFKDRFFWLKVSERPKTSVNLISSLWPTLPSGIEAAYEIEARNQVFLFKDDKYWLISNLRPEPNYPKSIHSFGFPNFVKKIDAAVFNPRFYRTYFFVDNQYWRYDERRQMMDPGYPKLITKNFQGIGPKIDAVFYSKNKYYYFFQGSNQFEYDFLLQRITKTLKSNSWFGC
endpointName: Ki (nM)
Your answer is read as nM, so omit the unit and give the number.

Query: Lab note: Macrophage metalloelastase (Homo sapiens, UniProt P39900) assay, enter Ki for NC(=O)CC[C@H](NC(=O)CCc1ccc(-c2cc(-c3ccccc3)cs2)cc1)C(=O)N[C@@H](CCC(=O)O)C(N)=O here
Response: 317
